The values you see were collected from the NIST ThermoML archive (doi:10.1021/je500093z).

viscosity values for the molecules below.
condition summary: 313.15 K; 101.33 kPa; Liquid

{"molecule": "CCCCn1cc[n+](C)c1.O=S(=O)([O-])O [1-butyl-3-methylimidazolium hydrogen sulfate]", "viscosity, mPa·s": 183.54}
{"molecule": "CCCCCCn1cc[n+](C)c1.F[P-](F)(F)(F)(F)F [1-hexyl-3-methylimidazolium hexafluorophosphate]", "viscosity, mPa·s": 142.99}
{"molecule": "CC(C)C[P+](C)(CC(C)C)CC(C)C.Cc1ccc(S(=O)(=O)[O-])cc1 [triisobutylmethylphosphonium p-toluenesulfonate]", "viscosity, mPa·s": 606.71}
{"molecule": "COS(=O)(=O)[O-].Cn1cc[n+](C)c1 [1,3-dimethylimidazolium methylsulfate]", "viscosity, mPa·s": 38.81}
{"molecule": "CCCCn1cc[n+](C)c1.F[P-](F)(F)(F)(F)F [1-butyl-3-methylimidazolium hexafluorophosphate]", "viscosity, mPa·s": 118.96}
